# study.target: human somatostatin receptor subtype 2 (Homo sapiens, UniProt P30874)
# Construct: expressed in transfected cells
# Sequence (P30874 whole entry): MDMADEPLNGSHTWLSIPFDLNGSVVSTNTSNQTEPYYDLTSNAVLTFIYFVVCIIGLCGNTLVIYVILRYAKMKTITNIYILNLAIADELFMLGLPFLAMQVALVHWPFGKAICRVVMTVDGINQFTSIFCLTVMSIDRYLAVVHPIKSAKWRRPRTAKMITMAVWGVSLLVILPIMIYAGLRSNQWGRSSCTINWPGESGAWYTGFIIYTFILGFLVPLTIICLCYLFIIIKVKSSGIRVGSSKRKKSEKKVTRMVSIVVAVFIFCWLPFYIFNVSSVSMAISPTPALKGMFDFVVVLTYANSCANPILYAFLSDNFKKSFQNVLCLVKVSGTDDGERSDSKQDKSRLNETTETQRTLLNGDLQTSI
# assay.comment: Functional assay for SSTR2 agonists (HTRF cAMP)
# Assay type: cell-based
# condition: CHO-K1 cells stably expressing human SST2; NKH477-stimulated cAMP; 20 min at 37 C; read-out: hSST2 cAMP Avg EC50

compound: CC[C@H](C)[C@@H]([C@@H](CC(=O)N1CCC[C@H]1[C@H](OC)[C@@H](C)C(=O)N[C@H](C)[C@@H](O)c1ccccc1)OC)N(C)C(=O)[C@@H](NC(=O)[C@H](C(C)C)N(C)C(=O)OCc1ccc(NC(=O)[C@H](CCCNC(N)=O)NC(=O)[C@@H](NC(=O)c2cc(NC(=O)CCCC(=O)N(C)CC(=O)NCCNc3ncc(-c4cc(C)cc(F)c4)c(N4CCC(N)CC4)c3-c3nc4ccc(F)cc4[nH]3)cc(C(=O)NCC(=O)O)c2)C(C)C)cc1)C(C)C
EC50 (nM): 0.1
//
compound: CC[C@H](C)[C@@H]([C@@H](CC(=O)N1CCC[C@H]1[C@H](OC)[C@@H](C)C(=O)N[C@H](C)[C@@H](O)c1ccccc1)OC)N(C)C(=O)[C@@H](NC(=O)[C@H](C(C)C)N(C)C(=O)OCc1ccc(NC(=O)[C@H](CCCNC(N)=O)NC(=O)[C@@H](NC(=O)CCOCCC(=O)N(C)CC(=O)NCCNc2ncc(-c3cc(C)cc(F)c3)c(N3CCC(N)CC3)c2-c2nc3ccc(Cl)cc3[nH]2)C(C)C)c(O[C@@H]2O[C@H](C(=O)NCCO)[C@@H](O)[C@H](O)[C@H]2O)c1)C(C)C
EC50 (nM): 0.23
//
compound: CC[C@H](C)[C@@H]([C@@H](CC(=O)N1CCC[C@H]1[C@H](OC)[C@@H](C)C(=O)N[C@H](C)[C@@H](O)c1ccccc1)OC)N(C)C(=O)[C@@H](NC(=O)[C@H](C(C)C)N(C)C(=O)OCc1ccc(NC(=O)[C@H](C)NC(=O)[C@@H](NC(=O)CN(C)C(=O)CCOCCC(=O)NCCNc2ncc(-c3cc(C)cc(F)c3)c(N3CCC(N)CC3)c2-c2nc3ccc(Cl)cc3[nH]2)C(C)C)c(O[C@@H]2O[C@H](C(=O)O)[C@@H](O)[C@H](O)[C@H]2O)c1)C(C)C
EC50 (nM): 0.046
//
compound: CC[C@H](C)[C@@H]([C@@H](CC(=O)N1CCC[C@H]1[C@H](OC)[C@@H](C)C(=O)N[C@H](C)[C@@H](O)c1ccccc1)OC)N(C)C(=O)[C@@H](NC(=O)[C@H](C(C)C)N(C)C(=O)OCc1ccc(NC(=O)[C@H](CCCNC(N)=O)NC(=O)[C@@H](NC(=O)CCOCCC(=O)NCCNc2ncc(-c3cc(C)cc(F)c3)c(N3CCC(N)CC3)c2-c2nc3ccc(Cl)cc3[nH]2)C(C)C)cc1C(=O)N[C@@H](CCCNC(=O)CCCCc1ccc(I)cc1)C(=O)O)C(C)C
EC50 (nM): 0.19
//
compound: CC[C@H](C)[C@@H]([C@@H](CC(=O)N1CCC[C@H]1[C@H](OC)[C@@H](C)C(=O)N[C@H](C)[C@@H](O)c1ccccc1)OC)N(C)C(=O)[C@@H](NC(=O)[C@H](C(C)C)N(C)C(=O)OCc1ccc(NC(=O)[C@H](CCCNC(N)=O)NC(=O)[C@@H](NC(=O)[C@H](CCC(=O)O)NC(=O)CCOCCOCCOCCOCCC(=O)NCCNc2ncc(-c3cc(C)cc(F)c3)c(N3CCC(N)CC3)c2-c2nc3ccc(Cl)cc3[nH]2)C(C)C)cc1C(=O)N1CC(N)C1)C(C)C
EC50 (nM): 0.074
//
compound: CC[C@H](C)[C@@H]([C@@H](CC(=O)N1CCC[C@H]1[C@H](OC)[C@@H](C)C(=O)N[C@H](C)[C@@H](O)c1ccccc1)OC)N(C)C(=O)[C@@H](NC(=O)[C@H](C(C)C)N(C)C(=O)OCc1ccc(NC(=O)[C@H](CCCNC(N)=O)NC(=O)[C@@H](NC(=O)CCOCCC(=O)N(C)CC(=O)NCCNc2ncc(-c3cc(C)cc(F)c3)c(N3CCC(N)CC3)c2-c2nc3ccc(Cl)cc3[nH]2)C(C)C)c(O[C@@H]2O[C@H](C(=O)O)[C@@H](O)[C@H](O)[C@H]2O)c1)C(C)C
EC50 (nM): 0.097
//
compound: CC[C@H](C)[C@@H]([C@@H](CC(=O)N1CCC[C@H]1[C@H](OC)[C@@H](C)C(=O)N[C@H](C)[C@@H](O)c1ccccc1)OC)N(C)C(=O)[C@@H](NC(=O)[C@H](C(C)C)N(C)C(=O)OCc1ccc(NC(=O)[C@H](CCCNC(N)=O)NC(=O)[C@@H](NC(=O)c2cc(NCCOCCC(=O)NCCNc3ncc(-c4cc(C)cc(F)c4)c(N4CCC(N)CC4)c3-c3nc4ccc(Cl)cc4[nH]3)cc(C(=O)NCCCC(=O)O)c2)C(C)C)cc1)C(C)C
EC50 (nM): 0.29
//
compound: CC[C@H](C)[C@@H]([C@@H](CC(=O)N1CCC[C@H]1[C@H](OC)[C@@H](C)C(=O)N[C@H](C)[C@@H](O)c1ccccc1)OC)N(C)C(=O)[C@@H](NC(=O)[C@H](C(C)C)N(C)C(=O)OCc1ccc(NC(=O)[C@H](C)NC(=O)[C@@H](NC(=O)CCOCCC(=O)NCCNc2ncc(-c3cc(C)cc(F)c3)c(N3CCC(N)CC3)c2-c2nc3cc(F)cc(OC)c3[nH]2)C(C)C)c(O[C@@H]2O[C@H](C(=O)O)[C@@H](O)[C@H](O)[C@H]2O)c1)C(C)C
EC50 (nM): 0.15
//
compound: CC[C@H](C)[C@@H]([C@@H](CC(=O)N1CCC[C@H]1[C@H](OC)[C@@H](C)C(=O)N[C@H](C)[C@@H](O)c1ccccc1)OC)N(C)C(=O)[C@@H](NC(=O)C(C(C)C)N(C)C(=O)OCc1ccc(NC(=O)[C@H](CCCNC(N)=O)NC(=O)[C@@H](NC(=O)CCOCCC(=O)NCCNc2ncc(-c3cc(C)cc(F)c3)c(N3CCC(N)CC3)c2-c2nc3ccc(Cl)cc3[nH]2)C(C)C)c(O[C@@H]2O[C@H](C(=O)N3CCN(CC(=O)O)CC3)[C@@H](O)[C@H](O)[C@H]2O)c1)C(C)C (stereo partly drawn)
EC50 (nM): 0.078
